src = paper PMC9694544

# test.method.notes: clinical
# assay.setup: human, in vivo, cycle 1 day 28 of dose-escalation phase, 200 mg (n=3), mean; read-out: Cmax
# Procedure: For single-dose PK parameters, plasma samples were taken at pre-dose and 0.5 h, 1 h, 2 h, 3 h, 4 h, 6 h, 8 h, 12 h, 24 h, 48 h, 72 h, 96 h, 120 h, 144 h, and 168 h post-dose in PK lead-in phase of dose-escalation phase, and plasma samples were also taken at pre-dose and 0.5 h, 1 h, 2 h, 3 h, 4 h, 6 h, 8 h, 12 h, and 24 h post-dose in cycle 1 day 1 of dose-expansion phase. […]

- molecule: "COc1cc(N2CCC(N3CCN(C)CC3)CC2)ccc1Nc1nc2c(c(Nc3ccccc3S(=O)(=O)NC(C)C)n1)CCN2 [Conteltinib]"
  Cmax / ng/mL: 259

###

# test.method.notes: clinical
# assay.setup: human, in vivo, 450 mg, cycle 1 day 28 of dose-expansion phase, 450 mg (n=10), mean; read-out: AUCINF_obs
endpoint.label: AUC(0-inf) (ng·h/mL)

- structure.smiles.string: "COc1cc(N2CCC(N3CCN(C)CC3)CC2)ccc1Nc1nc2c(c(Nc3ccccc3S(=O)(=O)NC(C)C)n1)CCN2"
  reported.result: 15700

###

# test.method.notes: clinical
# assay.setup: human, in vivo, 100 mg, cycle 1 day 28 of dose-expansion phase, 100 mg (n=5), mean

- structure.smiles.string: "COc1cc(N2CCC(N3CCN(C)CC3)CC2)ccc1Nc1nc2c(c(Nc3ccccc3S(=O)(=O)NC(C)C)n1)CCN2"
  MRT last [h]: 10.7

###

# test.method.notes: clinical
# assay.setup: human, in vivo, single dose, PK lead-in phase of dose-escalation phase, 300 mg (n=3), mean; read-out: Tmax
endpoint.label: Tmax (h)

- compound: "COc1cc(N2CCC(N3CCN(C)CC3)CC2)ccc1Nc1nc2c(c(Nc3ccccc3S(=O)(=O)NC(C)C)n1)CCN2 [Conteltinib]"
  reported.result: 2.5

###

# test.method.notes: clinical
# assay.setup: human, in vivo, single dose, PK lead-in phase of dose-escalation phase, 50 mg (n=2), mean; read-out: Tmax

- structure.smiles.string: "COc1cc(N2CCC(N3CCN(C)CC3)CC2)ccc1Nc1nc2c(c(Nc3ccccc3S(=O)(=O)NC(C)C)n1)CCN2"
  unit.tag: "h"
  Tmax: 2

###

# test.method.notes: clinical
# assay.setup: human, in vivo, cycle 1 day 28 of dose-escalation phase, 450 mg (n=3), mean

- compound: "COc1cc(N2CCC(N3CCN(C)CC3)CC2)ccc1Nc1nc2c(c(Nc3ccccc3S(=O)(=O)NC(C)C)n1)CCN2 [Conteltinib]"
  MRT last / h: 11.6

###

# test.method.notes: clinical
# assay.setup: human, in vivo, single dose, PK lead-in phase of dose-escalation phase, 300 mg (n=3), mean; read-out: T1/2 (converted)
endpoint.label: half-life

- structure.smiles.string: "COc1cc(N2CCC(N3CCN(C)CC3)CC2)ccc1Nc1nc2c(c(Nc3ccccc3S(=O)(=O)NC(C)C)n1)CCN2"
  endpoint.label: "half-life"
  reported.result: "78.5 h"

###

# test.method.notes: clinical
# assay.setup: human, in vivo, single dose, PK lead-in phase of dose-escalation phase, 100 mg (n=3), mean
endpoint.label: MRT last

- compound: "COc1cc(N2CCC(N3CCN(C)CC3)CC2)ccc1Nc1nc2c(c(Nc3ccccc3S(=O)(=O)NC(C)C)n1)CCN2 [Conteltinib]"
  endpoint.label: "MRT last"
  reported.result: "30.3 h"
